targetSystem: FPR1 F291A (Homo sapiens, UniProt P21462, F291A)
procedureText: cAMP inhibition assay, FPR1 F291A
pEC50: −log10 of the molar value.

structureSmiles	pEC50
COc1cc(/C=N/NC(=O)c2ccc3c(c2)OCO3)ccc1OCc1ccccc1	5.70

###

targetSystem: UniProt:P21462
procedureText: cAMP inhibition assay, WT FPR1
pEC50: −log10 of the molar value. Where a SMILES comes first, the peptide text is derived from it. The star is where a group is joined. For = O=C*
Recorded pEC50 for the following molecules

molecule	pEC50
COc1cc(/C=N/NC(=O)c2ccc3c(c2)OCO3)ccc1OCc1ccccc1 [AG-14]	6.40
CC[C@H](C)[C@H](NC(=O)[C@H](CCSC)NC=O)C(=O)N[C@@H](Cc1ccccc1)C(=O)N[C@@H](CC(C)C)C(=O)O [fMIFL, fMet-Ile-Phe-Leu] (For-MIFL-OH)	10.20

###

targetSystem: FPR1 R201A (Homo sapiens, UniProt P21462, R201A)
procedureText: cAMP inhibition assay, FPR1 R201A
Method: FPR1 cDNA in the pcDNA3.1(+) vector (Invitrogen) was used as a template for gene manipulation. The mutations of FPR1 were introduced in the receptor through overlap extension PCR with elaborately designed primers (GENEWIZ, Suzhou, China). […] For functional studies, FPR1 and its mutants were expressed in HeLa cells as above. […] Intracellular cAMP levels were measured with the LANCE Ultra cAMP kit (PerkinElmer, TRF0263) following the manufacturer’s instructions. […]
Where a SMILES comes first, the peptide text is derived from it. The star is where a group is joined. For = O=C*
Recorded EC50 for the following compounds
quantity: EC50 (µM)

compound	quantity	val
COc1cc(/C=N/NC(=O)c2ccc3c(c2)OCO3)ccc1OCc1ccccc1 [AG-14]	EC50	1.58
CC[C@H](C)[C@H](NC(=O)[C@H](CCSC)NC=O)C(=O)N[C@@H](Cc1ccccc1)C(=O)N[C@@H](CC(C)C)C(=O)O [fMIFL, fMet-Ile-Phe-Leu] (For-MIFL-OH)	EC50	0.00631

###

Recorded EC50 for the following compounds
targetSystem: FPR1 R205A (Homo sapiens, UniProt P21462, R205A)
Sequence (P21462 1-350 R205A): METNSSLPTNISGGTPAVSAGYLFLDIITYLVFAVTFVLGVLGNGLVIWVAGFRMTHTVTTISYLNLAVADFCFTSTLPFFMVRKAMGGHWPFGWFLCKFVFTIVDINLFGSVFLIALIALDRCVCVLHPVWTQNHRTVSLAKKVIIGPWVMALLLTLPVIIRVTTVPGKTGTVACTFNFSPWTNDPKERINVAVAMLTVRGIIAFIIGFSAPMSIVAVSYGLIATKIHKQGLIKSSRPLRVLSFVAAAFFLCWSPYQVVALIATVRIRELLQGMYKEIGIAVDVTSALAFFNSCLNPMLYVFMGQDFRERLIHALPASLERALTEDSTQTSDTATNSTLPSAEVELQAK
procedureText: cAMP inhibition assay, FPR1 R205A
Where a SMILES comes first, the peptide text is derived from it. The star is where a group is joined. For = O=C*

compound	unitAbbreviation	EC50
CC[C@H](C)[C@H](NC(=O)[C@H](CCSC)NC=O)C(=O)N[C@@H](Cc1ccccc1)C(=O)N[C@@H](CC(C)C)C(=O)O [fMIFL, fMet-Ile-Phe-Leu] (For-MIFL-OH)	nM	2.51
COc1cc(/C=N/NC(=O)c2ccc3c(c2)OCO3)ccc1OCc1ccccc1	nM	1000
